Origin of measurements: ChEMBL document CHEMBL4184195

For each record, write down the corresponding MIC.
# System: Escherichia coli
# test description: Antibacterial activity against Escherichia coli BL21 after 20 hrs by two fold serial dilution method
# Format: functional
# measurement parameters: BL21, 20 h
Bridge positions count the residues as written; N and C are the ends. Square brackets hold non-standard residues; d marks the D form. Peptide text beside a SMILES is read from it. S5 = C=CCCC[C@](C)(N)C(=O)O
Respond with the bare value in µM.

Task: Checklist item: MIC tested on Escherichia coli, entry C[C@H](NC(=O)[C@H](C)NC(=O)[C@H](Cc1ccccc1)NC(=O)[C@]1(C)CCC/C=C\CCC[C@](C)(NC(=O)[C@H](Cc2ccccc2)NC(=O)[C@H](C)NC(=O)[C@H](C)NC(=O)[C@H](CCCCN)NC(=O)[C@H](CCCCN)NC(=O)[C@H](CCCCN)NC(=O)[C@H](CCCCN)NC(=O)[C@H](CCCCN)NC(=O)[C@@H](N)CCCCN)C(=O)N[C@@H](C)C(=O)N[C@@H](Cc2c[nH]c3ccccc23)C(=O)N[C@@H](C)C(=O)N1)C(N)=O (H-KKKKKKAAF[S5]AWA[S5]FAA-NH2; staple (Z) 10-14) , value?
Result: 1

Task: Checklist item: MIC tested on Escherichia coli, entry C[C@H](NC(=O)CNC(=O)[C@H](Cc1ccccc1)NC(=O)[C@]1(C)CCC/C=C\CCC[C@](C)(NC(=O)[C@H](Cc2ccccc2)NC(=O)CNC(=O)[C@H](C)NC(=O)[C@H](CCCCN)NC(=O)[C@H](CCCCN)NC(=O)[C@H](CCCCN)NC(=O)[C@H](CCCCN)NC(=O)[C@H](CCCCN)NC(=O)[C@@H](N)CCCCN)C(=O)N[C@@H](C)C(=O)N[C@@H](Cc2c[nH]c3ccccc23)C(=O)N[C@@H](C)C(=O)N1)C(N)=O (H-KKKKKKAGF[S5]AWA[S5]FGA-NH2; staple (Z) 10-14) , value?
Result: 1.6

Task: Checklist item: MIC tested on Escherichia coli, entry C[C@H](NC(=O)CNC(=O)[C@H](Cc1ccccc1)NC(=O)[C@]1(C)CCC/C=C\CCC[C@](C)(NC(=O)[C@H](Cc2ccccc2)NC(=O)CNC(=O)[C@H](CC(N)=O)NC(=O)[C@H](CCCCN)NC(=O)[C@H](CCCCN)NC(=O)[C@H](CCCCN)NC(=O)[C@H](CCCCN)NC(=O)[C@H](CCCCN)NC(=O)[C@@H](N)CCCCN)C(=O)N[C@@H](C)C(=O)N[C@@H](Cc2c[nH]c3ccccc23)C(=O)NCC(=O)N1)C(N)=O (H-KKKKKKNGF[S5]AWG[S5]FGA-NH2; staple (Z) 10-14) , value?
Result: 4.2

Task: Checklist item: MIC tested on Escherichia coli, entry C[C@H](NC(=O)CNC(=O)[C@H](Cc1ccccc1)NC(=O)[C@]1(C)CCC/C=C\CCC[C@](C)(NC(=O)[C@H](Cc2ccccc2)NC(=O)CNC(=O)[C@H](C)NC(=O)[C@H](CCCCN)NC(=O)[C@H](CCCCN)NC(=O)[C@H](CCCCN)NC(=O)[C@H](CCCCN)NC(=O)[C@H](CCCCN)NC(=O)[C@@H](N)CCCCN)C(=O)N[C@@H](C)C(=O)N[C@@H](Cc2c[nH]c3ccccc23)C(=O)NCC(=O)N1)C(N)=O (H-KKKKKKAGF[S5]AWG[S5]FGA-NH2; staple (Z) 10-14) , value?
Result: 4.2
